- System: T1, recombinant human VEGF165 (human, UniProt P15692-4 27-191, biotinylated in the competition assays)
- T1 construct: Bought protein; also called hVEGF165; rhVEGF165
- T1 sequence (P15692 other isoform, or with tags, fused parts or gaps): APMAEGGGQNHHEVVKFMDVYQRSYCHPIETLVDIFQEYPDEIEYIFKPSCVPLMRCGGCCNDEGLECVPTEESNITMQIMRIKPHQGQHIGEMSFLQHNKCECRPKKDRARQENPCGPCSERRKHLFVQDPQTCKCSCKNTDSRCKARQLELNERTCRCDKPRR
- Test Name: AlphaScreen, hVEGF165/hVEGFR1-Fc competition
- Method: Finally, streptavidin donor beads (20 μg/ml) are added and after 1 hour of incubation in the dark, fluorescence is measured on the Envision microplate reader.
Entries and their IC50 values follow.
Value expressed in nM; do not type the unit.

Worked set:
[
  {
    "Binder": "VEGFBII024 (VHH, not shown: small tags and cut ends, Bivalent anti-VEGF VHH; also called VEGFBII23B04-40GS-86H09) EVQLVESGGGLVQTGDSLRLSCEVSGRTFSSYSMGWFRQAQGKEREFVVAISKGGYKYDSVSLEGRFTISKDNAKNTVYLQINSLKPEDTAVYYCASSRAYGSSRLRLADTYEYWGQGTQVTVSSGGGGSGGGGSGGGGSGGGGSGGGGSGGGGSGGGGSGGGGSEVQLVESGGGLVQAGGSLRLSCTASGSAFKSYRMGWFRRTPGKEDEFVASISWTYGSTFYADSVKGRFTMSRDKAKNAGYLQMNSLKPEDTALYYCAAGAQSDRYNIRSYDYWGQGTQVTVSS",
    "Metric": "IC50",
    "Result Number": 0.069
  },
  {
    "Binder": "VEGFBII023 (VHH, not shown: small tags and cut ends, Bivalent anti-VEGF VHH; also called VEGFBII23B04-40GS-10E07) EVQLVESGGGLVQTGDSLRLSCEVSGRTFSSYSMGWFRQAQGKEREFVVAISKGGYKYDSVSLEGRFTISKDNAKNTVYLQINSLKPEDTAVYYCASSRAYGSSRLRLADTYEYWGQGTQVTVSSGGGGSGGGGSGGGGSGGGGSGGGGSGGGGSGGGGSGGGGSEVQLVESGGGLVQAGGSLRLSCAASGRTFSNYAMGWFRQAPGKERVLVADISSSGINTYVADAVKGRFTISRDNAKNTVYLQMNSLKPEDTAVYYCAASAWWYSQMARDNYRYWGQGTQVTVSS",
    "Metric": "IC50",
    "Result Number": 0.048
  },
  {
    "Binder": "VEGFBII021 (VHH, not shown: small tags and cut ends, Bivalent (heterodimeric) anti-VEGF VHH; also called VEGFBII23B04-40GS-5B05) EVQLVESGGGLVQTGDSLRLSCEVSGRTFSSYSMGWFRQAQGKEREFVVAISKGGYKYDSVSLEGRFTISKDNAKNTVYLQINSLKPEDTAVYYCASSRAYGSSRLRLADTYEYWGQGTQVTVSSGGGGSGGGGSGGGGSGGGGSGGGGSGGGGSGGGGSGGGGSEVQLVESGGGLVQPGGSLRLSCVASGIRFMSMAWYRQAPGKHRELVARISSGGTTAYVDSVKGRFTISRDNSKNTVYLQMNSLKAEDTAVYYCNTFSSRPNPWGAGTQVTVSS",
    "Metric": "IC50",
    "Result Number": 0.012
  },
  {
    "Binder": "VEGFBII022 (VHH, not shown: small tags and cut ends, Bivalent (heterodimeric) anti-VEGF VHH; also called VEGFBII23B04-9GS-5B05) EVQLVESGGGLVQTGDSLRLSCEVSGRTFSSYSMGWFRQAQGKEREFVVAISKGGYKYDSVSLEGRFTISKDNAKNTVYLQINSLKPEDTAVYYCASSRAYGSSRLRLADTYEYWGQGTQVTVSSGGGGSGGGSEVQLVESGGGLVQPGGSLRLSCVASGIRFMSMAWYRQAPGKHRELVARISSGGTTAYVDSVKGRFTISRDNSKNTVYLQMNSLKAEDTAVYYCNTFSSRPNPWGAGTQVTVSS",
    "Metric": "IC50",
    "Result Number": 0.009
  },
  {
    "Binder": "VEGFBII025 (VHH, not shown: small tags and cut ends, Bivalent anti-VEGF VHH; also called VEGFBII10E07-40GS-23B04) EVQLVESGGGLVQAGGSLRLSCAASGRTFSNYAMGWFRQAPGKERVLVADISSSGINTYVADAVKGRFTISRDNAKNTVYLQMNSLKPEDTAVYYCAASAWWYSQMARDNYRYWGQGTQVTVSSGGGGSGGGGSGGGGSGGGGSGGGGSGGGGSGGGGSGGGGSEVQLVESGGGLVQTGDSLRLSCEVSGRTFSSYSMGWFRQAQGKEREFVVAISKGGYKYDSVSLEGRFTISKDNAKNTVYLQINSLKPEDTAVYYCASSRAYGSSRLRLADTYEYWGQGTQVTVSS",
    "Metric": "IC50",
    "Result Number": 0.071
  }
]

Then this binder:
Qu. I would be grateful if you could share the reported IC50 for VEGFBII010 (VHH, not shown: small tags and cut ends, Homodimeric bivalent anti-VEGF VHH; also called VEGFBII23B04-35GS-23B04) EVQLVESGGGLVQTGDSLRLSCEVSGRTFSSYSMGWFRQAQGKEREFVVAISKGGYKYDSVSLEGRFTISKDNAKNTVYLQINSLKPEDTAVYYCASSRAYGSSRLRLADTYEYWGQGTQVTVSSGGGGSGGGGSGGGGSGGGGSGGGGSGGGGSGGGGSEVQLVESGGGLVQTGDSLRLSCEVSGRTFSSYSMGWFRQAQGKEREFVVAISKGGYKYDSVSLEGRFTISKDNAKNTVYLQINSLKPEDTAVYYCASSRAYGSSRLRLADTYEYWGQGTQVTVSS .
Ans. 0.021
